# Tested on: MS2 coat protein
# assay notes: apparent KD of MS2 coat protein; designed switch direction (-1 OFF switch, 1 ON switch): 1; higher = weaker reporter binding
# experimental parameters: Eterna round: R95; input ligand: microRNA oligo, concentration not stated
Would you mind labelling by apparent KD of MS2 coat protein? At or over 60 nM is class 1, under is class 0.

Prompt line: Does apparent KD of MS2 coat protein meet or surpass 60 nM for AGUAUACAUGAGGAUCACCCAUGUCUGUAACGGACAGGAUAUGCGUUGCAUCACUGUAAUGCAGAAGGGUCCUGUA [Same State 1 - Mod of JMF's solution 1 v.2] (puzzle: Same State 1) ?
Response line: class 1

Prompt line: What would you report for GAGAGAGGAAGCGAGGAUAUCGUGUGGAGUACAUGAGGAUCACCCAUGUUGUAGGUAGAGGUAGGCGAGAAGGCGCAGGAGAGGU [JR_SS2_Sub097] (puzzle: Same State 2) ?
Response line: class 0

Prompt line: And what about the sequence UGUUAACAUGAGGAUCACCCAUGUCAAAUGAAUCGAGGAUAUGGGAAGUAAUAAGAGAAACUAGAAGGCGAAGUUG [Altered State 1-2 - Jieux - Same State 1] (puzzle: Same State 1) ?
Response line: class 1

Prompt line: Please do the same for GUUAAACAUGAGGAUCACCCAUGUCAAUGUAGUCGAGGAUAUGGGCAGCUAUGAGGCGUACUAGAAGGCGAAGAGG [Mat - Same State 1 - Mod of JL - D11] (puzzle: Same State 1) as well.
Response line: class 1

Prompt line: Same lookup for GCGAAACAUGAGGAUCACCCAUGUAUGGCGGGCACAGGAUAUCGUGGUUCGCUCAUACUACGAGAAGGGUGAAAAG [Orqu] (puzzle: Same State 1) , please.
Response line: class 0

Prompt line: Param item: AGUUGUGGAAAACUAUAGCAAAAGUAUGUACAUGAGGAUCACCCAUGUCAUGUACAAGCUUUUUGCUCGUCUUAAAA [ak 4 mod of one Eli's designs.] (puzzle: Sensor for hsa-mir-208a)
Response line: class 0

Prompt line: Next sequence up: AUAAAACAUGAGGAUCACCCAUGUCAACAAAGAUGAGGAUAUGUACAGACUUCGGUCUGUACAGAAGGCAUAUAAU [salish99_ss1_r3_099] (puzzle: Same State 1)
Response line: class 0

Prompt line: Please give the result for UAUGAACAUGAGGAUCACCCAUGUGGUACGAUCACAGGAUAUCACCUCGGACGUGCGAUGUGAGAAGGGUGAUGGU [Same State 1 - Mod of Vinnie Anrelari v.1] (puzzle: Same State 1) too.
Response line: class 1

Prompt line: Now this one: UUUAGUUGCGGGCAGGAUAUGUAUUAAAAUACAUGAGGAUCACCCAUGUGCGGGUAUAACACCCGAUAGAAGGGCCAAUCGCGAC [Laonerce - 11] (puzzle: Same State 2)
Response line: class 0

Prompt line: Would you kindly repeat that for AUAAGGCAAGCUUUUUUCUCGUAGUGUAAACAUGAGGAUCACCCAUGUGCCCACCCUGGAUCUUUGGAUCGCAAAAC [Ceatgeor] (puzzle: Sensor for hsa-mir-208a) ?
Response line: class 0

Prompt line: Same lookup for AUUAAACAUGAGGAUCACCCAUGUAAUAAUAUGGGAGGAUAUGCGAAUUUAAUUAUUUAAGCAGAAGGCCUAAUUA [Mat - Same State 1 - D100] (puzzle: Same State 1) , please.
Response line: class 0

Prompt line: Query AGCUAUCGCGUACGAUAGCUGAAGCGUGUACAUGAGGAUCACCCAUGUCAUGUACAAGCUUUUUGCUCGUCUUAUUG [JL-shm-2.28 JL mod] (puzzle: Sensor for hsa-mir-208a) next
Response line: class 0

Prompt line: Moving on to the next sequence: ACGCAGCUGGGUGAGGAUAUUGGUGGUACAACAUGAGGAUCACCCAUGUCCGAAGCUCGGACCCUCGAGAAGGCGCCCGGCUGCG [Soinraesar Omei Mod 5] (puzzle: Same State 2)
Response line: class 0

Prompt line: Now give it for AAGUUAAGCUUUUUGUUCUGCCUAUUCCAACAUGAGGAUCACCCAUGUAGUCUGACGAUUGUGUGUGUAGUUGAGAU [JR_SHM208A_Sub028] (puzzle: Sensor for hsa-mir-208a) too.
Response line: class 1

Prompt line: Then this sequence: UGGAUCUAGGCUUGCCUGGGUCCAUGUUGACAUGAGGAUCACCCAUGUGUAUUUUUUUAGCUUUUUGUUUGUCAACA [JL A Humble Attempt mod 5] (puzzle: Sensor for hsa-mir-208a)
Response line: class 0

Prompt line: What do you have for AAAGAUGGACAUGAGGAUCACCCAUGUGGAAAGUGAACAAGCUUUUGCUCGUGACAAAUGAACAAUCCAAUCCUAAA [mksensor] (puzzle: Sensor for hsa-mir-208a version 2) ?
Response line: class 0

Prompt line: Next entry: CAAACUUAGUAGGGUAGGUACCCAGGACGACAUGAGGAUCACCCAUGUAAGAGCUUUUUGCUCGUCGUCAACAGUUG [JR_SHM208a_Sub019] (puzzle: Sensor for hsa-mir-208a)
Response line: class 0

Prompt line: Another sequence: AGUCCAGCCUGAGCUGGACAAAAGCAUGUACAUGAGGAUCACCCAUGUUCAUGUACAAGCUUUUUGCUCGUCUAAAU [Mat - hsa-mir-208a - Mod of JL - 46] (puzzle: Sensor for hsa-mir-208a)
Response line: class 0

Prompt line: Same question for GUAGAUAUAACGGAGGAUAUUCAAUGAGAGACAUGAGGAUCACCCAUGUGAGAGUGAGAUGAUAGGAAGAAGGCUGAGAGAGAUG [Altered State 2-7 - Jieux - Same State 2] (puzzle: Same State 2) please.
Response line: class 1

Prompt line: Cool, now AUCCUACAUGAGGAUCACCCAUGUGAAGCCUCAAUAGGAUAUGCGUGUGCCUUGGCGCAUGCAGAAGGAUUGAAGC [JL Aveso mod 3] (puzzle: Same State 1)
Response line: class 1
